- assayText: Pharmacokinetics in plasma of male BALB/c mice
- Assay type: in vivo
- conditionNotes: mouse, plasma, iv, i.v. 2 mg/kg, back extrapolated concentration
assayEndpoint: C0 (ng/mL)
Answers are plain numbers, in ng/mL.

[ask] Reported C0, compound CC(C)c1ccc(CC(=O)N2CCN(c3ccc(C#N)nn3)CC2)cc1 : ____
[reply] 2810

###

- targetOrTestSystem: STK35 (Homo sapiens, UniProt Q8TDR2)
- Construct: DNA tag for qPCR (T7 phage fusion or DNA label); purchased DiscoverX KdELECT; host or cells: E. coli BL21-derived (T7 phage) or HEK-293
- Sequence (Q8TDR2 whole entry, the tested form may be a part): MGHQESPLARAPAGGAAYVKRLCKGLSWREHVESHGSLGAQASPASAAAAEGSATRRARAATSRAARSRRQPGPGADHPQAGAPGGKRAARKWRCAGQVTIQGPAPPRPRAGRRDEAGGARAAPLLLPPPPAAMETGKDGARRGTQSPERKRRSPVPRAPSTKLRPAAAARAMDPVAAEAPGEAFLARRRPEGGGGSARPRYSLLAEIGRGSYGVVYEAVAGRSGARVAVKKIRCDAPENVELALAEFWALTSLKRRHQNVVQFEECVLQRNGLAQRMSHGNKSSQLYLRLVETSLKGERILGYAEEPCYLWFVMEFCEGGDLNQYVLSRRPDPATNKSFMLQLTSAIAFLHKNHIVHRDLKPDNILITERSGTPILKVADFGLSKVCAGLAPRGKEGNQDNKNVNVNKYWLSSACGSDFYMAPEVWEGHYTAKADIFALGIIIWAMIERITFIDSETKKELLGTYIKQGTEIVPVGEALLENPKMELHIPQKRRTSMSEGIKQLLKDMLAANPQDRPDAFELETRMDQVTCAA
- assayText: KINOMEscan KdELECT
- Type: binding
- conditionNotes: STK35 Replicate ID = 1
assayEndpoint: Kd

[ask] Reported Kd, molecule CC(C)c1ccc(CC(=O)N2CCN(c3ccc(C#N)nn3)CC2)cc1 : ____
[reply] > 30 µM
